# System: BEN
# assay_text: relative viability (nuclei count vs DMSO), 5 days (fraction); higher = more cells survive
# assay_context: first compound 0.5 µM
relative viability overview
parameter_measured: relative viability

compound	parameter_measured	reported
CC1(C)CCC(c2ccc(Cl)cc2)=C(CN2CCN(c3ccc(C(=O)NS(=O)(=O)c4ccc(N[C@H](CCN5CCOCC5)CSc5ccccc5)c(S(=O)(=O)C(F)(F)F)c4)cc3)CC2)C1 [Navitoclax] + Cc1cc(Nc2cc(N3CCN(C)CC3)nc(Sc3ccc(NC(=O)C4CC4)cc3)n2)n[nH]1 [Tozasertib] (partner 0.1 µM)	relative viability	0.421
CC1(C)CCC(c2ccc(Cl)cc2)=C(CN2CCN(c3ccc(C(=O)NS(=O)(=O)c4ccc(N[C@H](CCN5CCOCC5)CSc5ccccc5)c(S(=O)(=O)C(F)(F)F)c4)cc3)CC2)C1 [Navitoclax] + Cc1nc(Nc2ncc(C(=O)Nc3c(C)cccc3Cl)s2)cc(N2CCN(CCO)CC2)n1 [Dasatinib] (partner 0.075 µM)	relative viability	0.0643
CC1(C)CCC(c2ccc(Cl)cc2)=C(CN2CCN(c3ccc(C(=O)NS(=O)(=O)c4ccc(N[C@H](CCN5CCOCC5)CSc5ccccc5)c(S(=O)(=O)C(F)(F)F)c4)cc3)CC2)C1 [Navitoclax] + C[C@@H](Oc1cc(-c2cnn(C3CCNCC3)c2)cnc1N)c1c(Cl)ccc(F)c1Cl [Crizotinib] (partner 1 µM)	relative viability	0.662

----------
# System: HCC-15
# assay_text: relative viability (nuclei count vs DMSO), 5 days (fraction); higher = more cells survive
# assay_context: first compound 0.03162 µM
Friendly reminder: relative viability below 0.8 is Criterion met, at or above is Criterion not met.

compound	class
NC(=O)Nc1cc(-c2cccc(F)c2)sc1C(=O)N[C@H]1CCCNC1 [AZD7762] + O=C(c1cc(Cc2n[nH]c(=O)c3ccccc23)ccc1F)N1CCN(C(=O)C2CC2)CC1 [Olaparib] (partner 8 µM)	Criterion not met
NC(=O)Nc1cc(-c2cccc(F)c2)sc1C(=O)N[C@H]1CCCNC1 [AZD7762] + Cc1cc(Nc2cc(N3CCN(C)CC3)nc(Sc3ccc(NC(=O)C4CC4)cc3)n2)n[nH]1 [Tozasertib] (partner 0.1 µM)	Criterion met
NC(=O)Nc1cc(-c2cccc(F)c2)sc1C(=O)N[C@H]1CCCNC1 [AZD7762] + Nc1nc2[nH]cc(CCc3ccc(C(=O)N[C@@H](CCC(=O)O)C(=O)O)cc3)c2c(=O)[nH]1 [Pemetrexed] (partner 0.2 µM)	Criterion met
NC(=O)Nc1cc(-c2cccc(F)c2)sc1C(=O)N[C@H]1CCCNC1 [AZD7762] + C[C@]1(O)C[C@@H](c2nc(-c3ccc4ccc(-c5ccccc5)nc4c3)c3c(N)nccn32)C1 [Linsitinib] (partner 1 µM)	Criterion not met
NC(=O)Nc1cc(-c2cccc(F)c2)sc1C(=O)N[C@H]1CCCNC1 [AZD7762] + C[C@@H](Oc1cc(-c2cnn(C3CCNCC3)c2)cnc1N)c1c(Cl)ccc(F)c1Cl [Crizotinib] (partner 1 µM)	Criterion met

----------
# Test system: SW 900
# assay_text: relative viability (nuclei count vs DMSO), 5 days (fraction); higher = more cells survive
# assay_context: first compound 0.8 µM

compound	relative viability
C=C1C(=O)O[C@@H](CCCCCCCC)[C@@H]1C(=O)O [C-75] + N=C(N)NC(=N)NCCc1ccccc1 [Phenformin] (partner 250 µM)	0.513
Oc1nc(-c2ccc(C(F)(F)F)cc2)nc2c1CSCC2 [XAV939] + NC(=O)Nc1cc(-c2cccc(F)c2)sc1C(=O)N[C@H]1CCCNC1 [AZD7762] (partner 0.2 µM)	0.599
C=C1C(=O)O[C@@H](CCCCCCCC)[C@@H]1C(=O)O [C-75] + Cc1nc(Nc2ncc(C(=O)Nc3c(C)cccc3Cl)s2)cc(N2CCN(CCO)CC2)n1 [Dasatinib] (partner 0.075 µM)	0.829
C=C1C(=O)O[C@@H](CCCCCCCC)[C@@H]1C(=O)O [C-75] + COc1cc2c(Oc3ccc(NC(=O)C4(C(=O)Nc5ccc(F)cc5)CC4)cc3F)ccnc2cc1OCCCN1CCOCC1 [Foretinib] (partner 0.25 µM)	0.842
C=C1C(=O)O[C@@H](CCCCCCCC)[C@@H]1C(=O)O [C-75] + CC(=O)Nc1cccc(-n2c(=O)n(C3CC3)c(=O)c3c(Nc4ccc(I)cc4F)n(C)c(=O)c(C)c32)c1 [Trametinib] (partner 0.02 µM)	0.848
C=C1C(=O)O[C@@H](CCCCCCCC)[C@@H]1C(=O)O [C-75] + CCNC(=O)c1noc(-c2cc(C(C)C)c(O)cc2O)c1-c1ccc(CN2CCOCC2)cc1 [Luminespib] (partner 0.01 µM)	0.163
C=C1C(=O)O[C@@H](CCCCCCCC)[C@@H]1C(=O)O [C-75] + Cc1cc(Nc2cc(N3CCN(C)CC3)nc(Sc3ccc(NC(=O)C4CC4)cc3)n2)n[nH]1 [Tozasertib] (partner 0.1 µM)	0.571
Oc1nc(-c2ccc(C(F)(F)F)cc2)nc2c1CSCC2 [XAV939] + COc1cc2c(Oc3ccc(NC(=O)C4(C(=O)Nc5ccc(F)cc5)CC4)cc3F)ccnc2cc1OCCCN1CCOCC1 [Foretinib] (partner 0.25 µM)	0.767
C=C1C(=O)O[C@@H](CCCCCCCC)[C@@H]1C(=O)O [C-75] + O=C(CCCCCCC(=O)Nc1ccccc1)NO [Vorinostat] (partner 1 µM)	0.47
Oc1nc(-c2ccc(C(F)(F)F)cc2)nc2c1CSCC2 [XAV939] + CC(=O)c1c(C)c2cnc(Nc3ccc(N4CCNCC4)cn3)nc2n(C2CCCC2)c1=O [Palbociclib] (partner 0.5 µM)	0.56

----------
relative viability overview
# System: NCI-H1944
# assay_text: relative viability (nuclei count vs DMSO), 5 days (fraction); higher = more cells survive
# assay_context: first compound 1.265 µM

molecule	relative viability
O=C(O)c1ccc(-c2c[nH]c3ncc(-c4ccccc4)cc23)cc1C1CCCC1 + COc1cccc2cc(-c3nc([C@H]4CC[C@H](C(=O)O)CC4)n4ncnc(N)c34)[nH]c12 [OSI-027] (partner 0.5 µM)	0.39
O=C(O)c1ccc(-c2c[nH]c3ncc(-c4ccccc4)cc23)cc1C1CCCC1 + Cc1nc(Nc2ncc(C(=O)Nc3c(C)cccc3Cl)s2)cc(N2CCN(CCO)CC2)n1 [Dasatinib] (partner 0.075 µM)	0.193
O=C(O)c1ccc(-c2c[nH]c3ncc(-c4ccccc4)cc23)cc1C1CCCC1 + C[C@@H](Oc1cc(-c2cnn(C3CCNCC3)c2)cnc1N)c1c(Cl)ccc(F)c1Cl [Crizotinib] (partner 1 µM)	1.01
O=C(O)c1ccc(-c2c[nH]c3ncc(-c4ccccc4)cc23)cc1C1CCCC1 + CS(=O)(=O)N1CCN(Cc2cc3nc(-c4cccc5[nH]ncc45)nc(N4CCOCC4)c3s2)CC1 [Pictilisib] (partner 1 µM)	0.35

----------
# Tested on: IA-LM
# assay_text: relative viability (nuclei count vs DMSO), 5 days (fraction); higher = more cells survive
# assay_context: first compound 0.08 µM
parameter_measured: relative viability

compound	parameter_measured	reported
C=C1C(=O)O[C@@H](CCCCCCCC)[C@@H]1C(=O)O [C-75] + COc1cc2c(Oc3ccc(NC(=O)C4(C(=O)Nc5ccc(F)cc5)CC4)cc3F)ccnc2cc1OCCCN1CCOCC1 [Foretinib] (partner 0.25 µM)	relative viability	1.14
Oc1nc(-c2ccc(C(F)(F)F)cc2)nc2c1CSCC2 [XAV939] + C[C@]1(O)C[C@@H](c2nc(-c3ccc4ccc(-c5ccccc5)nc4c3)c3c(N)nccn32)C1 [Linsitinib] (partner 1 µM)	relative viability	0.565
C=C1C(=O)O[C@@H](CCCCCCCC)[C@@H]1C(=O)O [C-75] + CS(=O)(=O)CCNCc1ccc(-c2ccc3ncnc(Nc4ccc(OCc5cccc(F)c5)c(Cl)c4)c3c2)o1 [Lapatinib] (partner 2 µM)	relative viability	0.816
C=C1C(=O)O[C@@H](CCCCCCCC)[C@@H]1C(=O)O [C-75] + CC(C)C[C@H](NC(=O)[C@H](Cc1ccccc1)NC(=O)c1cnccn1)B(O)O [Bortezomib] (partner 0.002 µM)	relative viability	0.79
Oc1nc(-c2ccc(C(F)(F)F)cc2)nc2c1CSCC2 [XAV939] + CS(=O)(=O)N1CCN(Cc2cc3nc(-c4cccc5[nH]ncc45)nc(N4CCOCC4)c3s2)CC1 [Pictilisib] (partner 1 µM)	relative viability	0.449
C=C1C(=O)O[C@@H](CCCCCCCC)[C@@H]1C(=O)O [C-75] + C[C@]1(O)C[C@@H](c2nc(-c3ccc4ccc(-c5ccccc5)nc4c3)c3c(N)nccn32)C1 [Linsitinib] (partner 1 µM)	relative viability	0.682
C=C1C(=O)O[C@@H](CCCCCCCC)[C@@H]1C(=O)O [C-75] + Cc1nc(NC(=O)N2CCC[C@H]2C(N)=O)sc1-c1ccnc(C(C)(C)C(F)(F)F)c1 [Alpelisib] (partner 2 µM)	relative viability	0.71
Oc1nc(-c2ccc(C(F)(F)F)cc2)nc2c1CSCC2 [XAV939] + CC(C)C[C@H](NC(=O)[C@H](Cc1ccccc1)NC(=O)c1cnccn1)B(O)O [Bortezomib] (partner 0.002 µM)	relative viability	0.736
